Answer each item with its documented IC (TGI).
System: OVCAR-8 (Ovarian cancer)
Experiment: NCI-60 screen (SRB, 48 h)
Conditions: Homo sapiens, OVCAR-8, 48 h, read-out: TGI
Provide only the numeric value, understood in µM.

INPUT: Name the recorded IC (TGI) of the item C=C(C)C1CCC2(CO)CCC3(C)C(CCC4C5(C)CCCNC(C)(C)C5CCC43C)C12 (stereo not drawn) in your answer.
OUTPUT: 3.51

INPUT: Name the recorded IC (TGI) of the item `C=C(C)[C@@H]1CC[C@]2(C)[C@H](C=CC3=C4C[C@@](C)(CO)CC[C@]4(C)CC[C@]32C)[C@@]1(C)CCCN` in your answer.
OUTPUT: 4.61

INPUT: Name the recorded IC (TGI) of the item `Cc1ccc(S(=O)(=O)OC[C@@]2(C)CC[C@]3(C)CC[C@]4(C)C(=C3C2)C=C[C@@H]2[C@@]3(C)CCCNC(C)(C)[C@@H]3CC[C@]24C)cc1` in your answer.
OUTPUT: 4.57

INPUT: Name the recorded IC (TGI) of the item `C[C@H]1[C@H](C)CC[C@]2(CO)CC[C@]3(C)C(=CC[C@@H]4[C@@]5(C)CCCNC(C)(C)[C@@H]5CC[C@]43C)[C@H]12` in your answer.
OUTPUT: 3.61

INPUT: Name the recorded IC (TGI) of the item `CC(C)=C1CCC=C2CC[C@]3(C)[C@H](CC[C@@H]4[C@@]5(C)CCCNC(C)(C)[C@@H]5CC[C@]43C)[C@H]21` in your answer.
OUTPUT: 4.25

INPUT: Name the recorded IC (TGI) of the item `C=C(C)[C@@H]1CC[C@]2(C(=O)N[C@H](CO)Cc3ccccc3)CC[C@]3(C)[C@H](CC[C@@H]4[C@@]5(C)CCCNC(C)(C)[C@@H]5CC[C@]43C)[C@@H]12` in your answer.
OUTPUT: 2.8

----------
Tested on: SW-620 (Colon cancer)
Test: NCI-60 screen (SRB, 48 h)
Settings: Homo sapiens, SW-620, read-out: LC50
So basically, the class depends on measured CC50, and the ranges are low class: < 6 µM; middle class: ≥ 6 µM and < 7 µM; high class: ≥ 7 µM

INPUT: Pick a category. Item: CC1(C)NCCC[C@]2(C)[C@H]3C=CC4=C5C[C@@](C)(CO)CC[C@]5(C)CC[C@@]4(C)[C@]3(C)CC[C@@H]12 [Compound 6, azepano-glycyrrhetol-diene]
OUTPUT: high class

INPUT: Pick a category. Item: CC1(C)CC[C@]2(CO)CC[C@]3(C)C(=CC[C@@H]4[C@@]5(C)CCCNC(C)(C)[C@@H]5CC[C@]43C)[C@@H]2C1 [Compound 3, azepanoerythrodiol]
OUTPUT: high class

INPUT: Pick a category. Item: C[C@H]1[C@H](C)CC[C@]2(C(=O)Nc3ccc4ncccc4c3)CC[C@]3(C)C(=CC[C@@H]4[C@@]5(C)CCCNC(C)(C)[C@@H]5CC[C@]43C)[C@H]12 [Compound 14]
OUTPUT: middle class

INPUT: Pick a category. Item: C=C(C)[C@@H]1CC[C@]2(C)[C@H](CC=C3[C@@H]4[C@@H](C)[C@H](C)CC[C@]4(CO)CC[C@]32C)[C@@]1(C)CCCN [Compound 19]
OUTPUT: low class

INPUT: Pick a category. Item: C=C(C)C1CCC2(CO)CCC3(C)C(CCC4C5(C)CCCNC(C)(C)C5CCC43C)C12 (stereo not drawn) [Compound 1, Azepanobetulin]
OUTPUT: middle class

----------
Tested on: Breast cancer subpanel
Assay: NCI-60 screen, subpanel
Conditions: Homo sapiens, read-out: GI50 MG_MID
Answer each item with its documented GI50.
Provide only the numeric value, understood in nM.

INPUT: Name the recorded GI50 of the item `C=C(C)[C@@H]1CC[C@]2(C)[C@H](CC=C3[C@@H]4[C@@H](C)[C@H](C)CC[C@]4(CO)CC[C@]32C)[C@@]1(C)CCCN` in your answer.
OUTPUT: 1280

INPUT: Name the recorded GI50 of the item `Cc1ccc(S(=O)(=O)OC[C@@]2(C)CC[C@]3(C)CC[C@]4(C)C(=C3C2)C=C[C@@H]2[C@@]3(C)CCCNC(C)(C)[C@@H]3CC[C@]24C)cc1` in your answer.
OUTPUT: 1670

INPUT: Name the recorded GI50 of the item `C[C@H]1[C@H](C)CC[C@]2(C(=O)Nc3ccc4ncccc4c3)CC[C@]3(C)C(=CC[C@@H]4[C@@]5(C)CCCNC(C)(C)[C@@H]5CC[C@]43C)[C@H]12` in your answer.
OUTPUT: 1760

INPUT: Name the recorded GI50 of the item `C=C(C)[C@@H]1CC[C@]2(COS(=O)(=O)c3ccc(C)cc3)CC[C@]3(C)[C@@H](CC[C@@H]4[C@@]5(C)CCCNC(C)(C)[C@@H]5CC[C@]43C)[C@@H]12` in your answer.
OUTPUT: 1710

INPUT: Name the recorded GI50 of the item C=C(C)C1CCC2(CO)CCC3(C)C(CCC4C5(C)CCCNC(C)(C)C5CCC43C)C12 (centres unmarked) in your answer.
OUTPUT: 1710

INPUT: Name the recorded GI50 of the item `C=C(C)[C@@H]1CCC=C2CC[C@]3(C)[C@H](CC[C@@H]4[C@@]5(C)CCCNC(C)(C)[C@@H]5CC[C@]43C)[C@H]21` in your answer.
OUTPUT: 1710

INPUT: Name the recorded GI50 of the item `C[C@H]1[C@H](C)CC[C@]2(CO)CC[C@]3(C)C(=CC[C@@H]4[C@@]5(C)CCCNC(C)(C)[C@@H]5CC[C@]43C)[C@H]12` in your answer.
OUTPUT: 1740

INPUT: Name the recorded GI50 of the item `CC1(C)NCCC[C@]2(C)[C@H]3C=CC4=C5C[C@@](C)(CO)CC[C@]5(C)CC[C@@]4(C)[C@]3(C)CC[C@@H]12` in your answer.
OUTPUT: 6680

INPUT: Name the recorded GI50 of the item `CC(C)=C1CCC=C2CC[C@]3(C)[C@H](CC[C@@H]4[C@@]5(C)CCCNC(C)(C)[C@@H]5CC[C@]43C)[C@H]21` in your answer.
OUTPUT: 1720

INPUT: Name the recorded GI50 of the item `CC1(C)CC[C@]2(CO)CC[C@]3(C)C(=CC[C@@H]4[C@@]5(C)CCCNC(C)(C)[C@@H]5CC[C@]43C)[C@@H]2C1` in your answer.
OUTPUT: 3120

INPUT: Name the recorded GI50 of the item `Cc1ccc(S(=O)(=O)OC[C@]23CCC(C)(C)C[C@H]2C2=CC[C@@H]4[C@@]5(C)CCCNC(C)(C)[C@@H]5CC[C@@]4(C)[C@]2(C)CC3)cc1` in your answer.
OUTPUT: 1750

----------
Tested on: K-562 (Leukemia)
Test: NCI-60 screen (SRB, 48 h)
Conditions: Homo sapiens, K562, 48 h, read-out: TGI
Answer each item with its documented IC (TGI).
Provide only the numeric value, understood in µM.

INPUT: Name the recorded IC (TGI) of the item CC(C)=C1CCC=C2CC[C@]3(C)[C@H](CC[C@@H]4[C@@]5(C)CCCNC(C)(C)[C@@H]5CC[C@]43C)[C@H]21 [Compound 9] in your answer.
OUTPUT: 3.5

INPUT: Name the recorded IC (TGI) of the item C=C(C)C1CCC2(CO)CCC3(C)C(CCC4C5(C)CCCNC(C)(C)C5CCC43C)C12 (centres unmarked) [Compound 1, Azepanobetulin] in your answer.
OUTPUT: 3.79

INPUT: Name the recorded IC (TGI) of the item C[C@H]1[C@H](C)CC[C@]2(CO)CC[C@]3(C)C(=CC[C@@H]4[C@@]5(C)CCCNC(C)(C)[C@@H]5CC[C@]43C)[C@H]12 [Compound 4, azepanouvaol] in your answer.
OUTPUT: 2.02

INPUT: Name the recorded IC (TGI) of the item CC1(C)NCCC[C@]2(C)[C@H]3C=CC4=C5C[C@@](C)(CO)CC[C@]5(C)CC[C@@]4(C)[C@]3(C)CC[C@@H]12 [Compound 6, azepano-glycyrrhetol-diene] in your answer.
OUTPUT: 10.8

INPUT: Name the recorded IC (TGI) of the item CC1(C)CC[C@]23CC[C@]4(C)[C@H](CC[C@@H]5[C@@]6(C)CCCNC(C)(C)[C@@H]6CC[C@]54C)[C@H]2[C@H]1OC3 [Compound 7, Azepanoallobetulin] in your answer.
OUTPUT: 7

INPUT: Name the recorded IC (TGI) of the item C=C(C)[C@@H]1CC[C@]2(C)[C@H](CC=C3[C@@H]4[C@@H](C)[C@H](C)CC[C@]4(CO)CC[C@]32C)[C@@]1(C)CCCN [Compound 19] in your answer.
OUTPUT: 3.63

INPUT: Name the recorded IC (TGI) of the item C=C(C)[C@@H]1CC[C@]2(C)[C@H](C=CC3=C4C[C@@](C)(CO)CC[C@]4(C)CC[C@]32C)[C@@]1(C)CCCN [Compound 20] in your answer.
OUTPUT: 5.04
